// provenance: PubChem BioAssay

- assay.method.text: small-molecule microarray binders of probe aCHRDL2, primary screen, biochemical, biotinylated probe, 635/667 nm fluorescence (AID 1100)
- setup.conditions: higher = more signal
Would you please tag the item yes when its composite z-score is 0.5 or above, and no when it is below?

compound	class
C=CCNC(=O)[C@@H]1[C@H]2C(=O)O[C@H](c3ccccc3)[C@H](c3ccccc3)N2[C@H](c2ccc(OCCO)cc2)[C@@]12C(=O)Nc1ccc(C#CCCO)cc12	no
C=C[C@H](COC(C)=O)N(C(=O)OC(C)(C)C)S(=O)(=O)c1ccc(Br)cc1	yes
CCCC[C@H]1OB(O)C[C@H]2C1=C(COc1ccccc1)C[C@H]1C(=O)N(C)C(=O)[C@H]12	no
CN1C(=O)C2C=CC(C(O)c3ccc(I)cc3)N(N3CCCCC3)C2C1=O (centres undefined)	yes
Cc1ccc(C(C)CC(O)C2C=CC3C(=O)N(C)C(=O)C3N2NC(=O)OC(C)(C)C)o1 (centres undefined)	no
CCCCC(O)C1C=CC2C(=O)N(c3ccccc3)C(=O)C2N1Nc1ccccc1F (centres undefined)	yes
COCCOC(=O)N1C(=O)[C@@]2(c3cc(C#CCNC(N)=O)ccc31)[C@H](C(=O)NC[C@H](O)c1ccccc1)[C@H]1C(=O)O[C@H](c3ccccc3)[C@H](c3ccccc3)N1[C@@H]2c1ccccc1OCCO	no
COc1ccc(C(O)C2C=CC3C(=O)NC(=O)C3N2Nc2ccccn2)c2ccccc12 (centres undefined)	no
CCCCN1CC=CC23O[C@@H]4/C=C\CCC(C)OC(=O)C4[C@H]2C(=O)N(CCCCCO)[C@@H]3C1=O (some centres undefined)	no
COc1cc(OC)c(C(O)C2C=CC3C(=O)NC(=O)C3N2Nc2ccc(Cl)cc2Cl)cc1Br (centres undefined)	yes
CN1C2C=C(CCCO)C(C3C(=O)N(C(N)=O)C(=O)C32)C1c1ccc(CN2CCCC2)cc1 (centres undefined)	no
CCOC(=O)C1=CCC(c2ccccc2)N(S(=O)(=O)CC[Si](C)(C)C)C1 (centres undefined)	no
CC(C)(C)OC(=O)CC[C@@]12N=C(c3ccc(OCCCO)cc3)O[C@@H]1c1ccccc1N(CCS(=O)(=O)c1ccccc1)C2=O	yes
C=CCNC(=O)[C@H]1[C@@H]2C(=O)O[C@@H](c3ccccc3)[C@@H](c3ccccc3)N2[C@@H](c2ccccc2OCCO)[C@]12C(=O)Nc1ccc(C#CC3=CCCCC3)cc12	no
CCOC(=O)C1=CCC(c2ccc(C)cc2)N(S(=O)(=O)c2ccc(C)cc2)C1 (centres undefined)	yes
CC(C)c1ccc(NN2C(C(O)C(c3ccccc3)c3ccccc3)C=CC3C(=O)N(c4ccccc4)C(=O)C32)cc1 (centres undefined)	no
CN1C(=O)C2C=CC(C(O)c3cc(C(F)(F)F)cc(C(F)(F)F)c3)N(N3CCCCC3)C2C1=O (centres undefined)	yes
COc1ccc(CCNC(=O)[C@@]2(Sc3ccc(C)cc3)CC(=O)N(C3CCCCC3)[C@@H]2c2ccc(CO)cc2I)cc1	no
CCOC(=O)C[C@H]1[C@H](OC(=O)Cc2ccc3c(c2)OCO3)[C@@H](NC(=O)c2ccc(-c3ccccc3)cc2)c2cc(OCCCO)ccc2N1C(=O)Cc1ccc(OC)cc1	no
[N-]=[N+]=Nc1ccccc1[C@H]1OC(c2ccc(OCCCO)cc2)=N[C@@]1(Cc1ccccc1)C(=O)O	no
C=C(COC)/C(=C/C[C@H](OC(=O)c1ccncc1)c1ccc(OCCO)cc1)c1cnc2ccccc2c1	no
CCOC(=O)C=Cc1cc([N+](=O)[O-])ccc1O	no
CC(C)(C)C(=O)N[C@@H](c1ccc(Cl)cc1)[C@]1(C)C[C@H]1C1CCCCC1	yes
COC(=O)[C@@]1(Cc2ccc(OC)cc2)[C@H]2c3cc(C(=O)N4CCCC4)n(Cc4ccccc4)c3C[C@H]2CN1C(=O)c1ccccc1	yes
COC(=O)C(CC#Cc1ccc2c(c1)[C@]1(C(=O)N2)[C@H](C(=O)O)[C@H]2C(=O)O[C@H](c3ccccc3)[C@H](c3ccccc3)N2[C@@H]1c1ccc(O)cc1)C(=O)OC	yes
C=CCC(OC(C)=O)[C@@H]1[C@@H](N(Cc2ccc(-c3cccc(C(F)(F)F)c3)o2)C(=O)Cc2ccc(F)cc2)c2cc(OCCCO)ccc2N1C(=O)Cc1ccc(OC)cc1 (some centres undefined)	no
C=CCOC(=O)[C@H]1[C@@H]2C(=O)O[C@@H](c3ccccc3)[C@@H](c3ccccc3)N2[C@@H](c2ccc(OCCOC(=O)[C@@H]3C[C@@H]4C(=O)N[C@@H](CCCCN(C)C)C(=O)N4[C@@H]3c3ccc(O)cc3)cc2)[C@]12C(=O)Nc1ccc(I)cc12	no
COc1cc2c(cc1OC)CN(C(=O)[C@H]1[C@@H]3C(=O)O[C@@H](c4ccccc4)[C@@H](c4ccccc4)N3[C@@H](c3ccc(O)cc3)[C@]13C(=O)Nc1ccc(C#CCNC(N)=O)cc13)CC2	no
